Test system: PC-3
MEASUREMENT PROTOCOL: Cytotoxicity against human PC-3 cells assessed as reduction in cell viability measured after 72 hrs by SRB assay
Format: functional, cell-based
MEASUREMENT PARAMETERS: PC-3, 72 h
IC50 listing for selected molecules.
Please make sure the unit comes right after the number.

Known results for molecules:
INSERT INTO results (smiles_structure, readout_name, result) VALUES
  ('O=c1c2ccccc2[nH]c2c([N+](=O)[O-])ccc(NCCCN3CCN(CCCNc4c5ccccc5nc5cccc([N+](=O)[O-])c45)CC3)c12', 'IC50', '0.026 µM'),
  ('O=c1c2cc(O)ccc2[nH]c2c([N+](=O)[O-])ccc(NCCCN3CCN(CCCNc4c5ccccc5nc5cccc([N+](=O)[O-])c45)CC3)c12', 'IC50', '0.031 µM');

Recorded IC50 for Cc1ccc([N+](=O)[O-])c2c(NCCCN3CCN(CCCNc4ccc([N+](=O)[O-])c5[nH]c6ccccc6c(=O)c45)CC3)c3ccccc3nc12 , please?
0.362 µM

----------
System: DU-145
MEASUREMENT PROTOCOL: Cytotoxicity against human DU-145 cells assessed as reduction in cell viability measured after 72 hrs by SRB assay
Assay type: functional, cell-based
MEASUREMENT PARAMETERS: DU-145, 72 h
READOUT NAME: IC50
Answer with the value and then the unit.

INSERT INTO measurements (smiles_structure, readout_name, result) VALUES
  ('Cc1ccc([N+](=O)[O-])c2c(NCCCN(C)CCCNc3ccc([N+](=O)[O-])c4[nH]c5ccccc5c(=O)c34)c3ccccc3nc12', 'IC50', '44 nM'),
  ('Cc1ccc(NCCCNCCCNc2c3ccccc3nc3cccc([N+](=O)[O-])c23)c2c(=O)c3ccccc3[nH]c12', 'IC50', '184 nM');

Quick check: IC50 of O=c1c2ccccc2n2cnc3ccc(NCCCN4CCN(CCCNc5c6ccccc6nc6cccc([N+](=O)[O-])c56)CC4)c1c32 ?
22 nM

Endpoint output: IC50 of O=c1c2cc(O)ccc2n2cnc3ccc(NCCCN4CCN(CCCNc5c6ccccc6nc6cccc([N+](=O)[O-])c56)CC4)c1c32 . Value?
20 nM

Data request, read-out IC50, for Cc1cc(NCCCN(C)CCCNc2ccc3ncn4c5ccc(O)cc5c(=O)c2c34)c([N+](=O)[O-])c2cc3ccccc3nc12
59 nM

Item under review: Cc1ccc([N+](=O)[O-])c2c(NCCCN3CCN(CCCNc4ccc(C)c5[nH]c6ccc(O)cc6c(=O)c45)CC3)c3ccccc3nc12 . Reported IC50?
46 nM

# input molecule: O=c1c2cc(O)ccc2[nH]c2c([N+](=O)[O-])ccc(NCCCN3CCN(CCCNc4c5ccccc5nc5cccc([N+](=O)[O-])c45)CC3)c12 ; wanted: its IC50
20 nM

----------
Tested on: Quadruplex DNA
MEASUREMENT PROTOCOL: Stabilization of 5'-FAM/3'-TAMRA labeled c-Myc promoter G4 quadruplex DNA FPu18 (unknown origin) assessed as change in melting temperature at 10 microM measured after 15 mins by FRET assay
Assay type: nucleic-acid assay
As shown below, each of these compounds has a reported ΔTm value.
Field format: number, assumed °C, no unit text.

INSERT INTO measurements (compound, result_number) VALUES
  ('Cc1ccc([N+](=O)[O-])c2c(NCCCN(C)CCCNc3ccc([N+](=O)[O-])c4[nH]c5ccccc5c(=O)c34)c3ccccc3nc12', 18.8);

Endpoint output: ΔTm of COc1ccc2c(c1)c(=O)c1c(NCCCN3CCN(CCC(N)c4ccc5nc6ccccc6cc5c4[N+](=O)[O-])CC3)ccc3ncn2c31 (centres undefined) . Value?
32.8

Reported ΔTm for Cc1ccc([N+](=O)[O-])c2c(NCCCN3CCN(CCCNc4ccc5ncn6c7ccc(O)cc7c(=O)c4c56)CC3)c3ccccc3nc12 : what is it?
21.3

So what does the record say about ΔTm for O=c1c2ccccc2[nH]c2c([N+](=O)[O-])ccc(NCCCN3CCN(CCCNc4c5ccccc5nc5cccc([N+](=O)[O-])c45)CC3)c12 ?
23.7

The measurements presented in this section are drawn from ChEMBL document CHEMBL4765407.
